normalized growth for assorted compounds
- Assay Overview: chemical genetic growth profiling, strain panel (AID 1159580);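 also: tested at 20 µM; growth read once vehicle control cultures reached saturation at 30 °C; 1 = growth at the plate median or of vehicle wells; lower values mean less growth of the strain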
- Experimental Context: S. cerevisiae deletion strains, growth OD, locus YOR070C, strain gyp1, hits give low values
Hit rate of the full screen: of about 5,500 compounds, about 2,000 (36%) were called active. Roughly 18% stayed inconclusive and do not appear here. This is one part of the list.

Structure As Smiles: O=C(O)c1cc(O)c2c(c1)[C@@H]([C@H]1c3cc(C(=O)O)cc(O)c3C(=O)c3c(O[C@H]4O[C@H](CO)[C@@H](O)[C@H](O)[C@H]4O)cccc31)c1cccc(O[C@H]3O[C@H](CO)[C@@H](O)[C@H](O)[C@H]3O)c1C2=O
normalized growth: 1.08 [resistant] (active)
--
Structure As Smiles: CC(=O)Nc1ccc(S(=O)(=O)Nc2onc(C)c2C)cc1
normalized growth: 0.977 (inactive)

Next, consider the following compound.
Field request: normalized growth | item: CN(C)[C@@H]1C(=O)C(C(=O)NCN2CCCC2)=C(O)[C@@]2(O)C(=O)C3=C(O)c4c(O)cccc4[C@@](C)(O)[C@H]3C[C@@H]12 1 (inactive)

###

- Assay Overview: chemical genetic growth profiling, strain panel (AID 1159580)
- Experimental Context: S. cerevisiae deletion strains, growth OD, locus YLR342W, strain FKS1 (second series), hits give low values
About 2,000 (36%) of roughly 5,500 compounds were called active. Not shown: some 18% with an inconclusive outcome. The list shows a part of the results.
normalized growth for assorted compounds
Give a plain numeric answer without units written out.

Here's what some known entries look like.
Compound: Nc1ccc(S(=O)(=O)NC(=O)c2ccccc2)cc1
Observation Type: normalized growth
Test Value: 1.02

Compound: O=C(O)c1ccc(S(=O)(=O)N(Cl)Cl)cc1
Observation Type: normalized growth
Test Value: 0.993

Compound: CC(CCC(=O)O)[C@H]1CCC2C3CC[C@@H]4CC(=O)CC[C@]4(C)C3C=C[C@@]21C (some centres not stated)
Observation Type: normalized growth
Test Value: 0.87

Compound: N[C@@H](CCC(=O)N[C@@H](CS)C(=O)NCC(=O)O)C(=O)O
Observation Type: normalized growth
Test Value: 1.03

Compound: CCCN(CCC)S(=O)(=O)c1ccc(C(=O)O)cc1
Observation Type: normalized growth
Test Value: 0.984

Next, consider the following compound.
Field request: normalized growth | item: O=P1(N(CCCl)CCCl)NCCCO1 (configuration not stated) 1.02

###

- Assay Overview: chemical genetic growth profiling, strain panel (AID 1159580)
- Experimental Context: S. cerevisiae deletion strains, growth OD, locus YOR069W, strain VPS5, hits give low values
In all, about 5,500 compounds went through this assay and about 2,000 (36%) were called active. Another 18% or so got no clear call; they are omitted. The list shows a part of the results.
Observation Type: normalized growth
Give a plain numeric answer without units written out.

Here's what some known entries look like.
Compound: COc1cc(C/C=C/c2ccccc2)c(OC)cc1O
Observation Type: normalized growth
Test Value: 0.955

Compound: CCCSc1ccc2nc(NC(=O)OC)[nH]c2c1
Observation Type: normalized growth
Test Value: 0.99

Field request: normalized growth | item: CCCOc1ccc2nc(NC(=O)OC)[nH]c2c1 0.993

Field request: normalized growth | item: C/C1=C\CC(C)(C)/C=C/CC2(C)OC2CC1 (configuration not stated) 1.01

Field request: normalized growth | item: CCOC(=O)NNc1nncc2ccccc12 0.986

Field request: normalized growth | item: COc1ccccc1OCC(O)CO (configuration not stated) 1.01

Field request: normalized growth | item: C/C1=C/CC(C)(C)/C=C/C/C(C)=C/CC1 1.02

###

- Assay Overview: chemical genetic growth profiling, strain panel (AID 1159580)
- Experimental Context: S. cerevisiae deletion strains, growth OD, locus YKL160W, strain elf1
The campaign covered roughly 5,500 compounds. About 2,000 (36%) were called active. About 18% were inconclusive and are not listed. Cut-off read from the data, not from the text of the source: active = normalized growth mostly below about 0.91 (no sharp cut-off); inconclusive = no clear call, values can overlap the other calls; inactive = mostly above about 0.92. This is one part of the list.
Hello, when you answer, please use one of the following outcomes: active, inactive

Worked cases, answers included:
Compound: COC(=O)c1c(OC)cc2c(c1C)Oc1c(Cl)c(O)c(Cl)c(C)c1C(=O)O2
Label Value: inactive
//
Compound: O=C(O)c1cc(O)c2c(c1)[C@@H]([C@H]1c3cc(C(=O)O)cc(O)c3C(=O)c3c(O[C@H]4O[C@H](CO)[C@@H](O)[C@H](O)[C@H]4O)cccc31)c1cccc(O[C@H]3O[C@H](CO)[C@@H](O)[C@H](O)[C@H]3O)c1C2=O
Label Value: inactive
//
Compound: CC(CCC(=O)O)[C@H]1CCC2C3C(=O)C[C@@H]4CC(=O)CC[C@]4(C)C3CC(=O)[C@@]21C (stereo not given in full)
Label Value: inactive
//
Compound: CC(C)=CC1C(C(=O)O)C1(C)C (stereo not given)
Label Value: inactive
//
Compound: Cc1cn[nH]c1
Label Value: inactive

Status in this test for CC(CCC(=O)O)[C@H]1CCC2C3CC[C@@H]4C[C@H](O)CC[C@]4(C)C3C=C[C@@]21C (stereo not given in full) ? active

Status in this test for COC(=O)c1c(C)c2c(c(C)c1O)OC(=O)c1c(C)c(Cl)c(O)c(Cl)c1O2 ? inactive

Status in this test for CC(N=C(NC#N)Nc1ccncc1)C(C)(C)C (stereo not given) ? inactive

Status in this test for CN(C)C(=O)Oc1cccc([N+](C)(C)C)c1 ? inactive

Status in this test for Oc1cccc(O)c1 ? inactive

###

- Assay Overview: chemical genetic growth profiling, strain panel (AID 1159580);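 also: tested at 20 µM; growth read once vehicle control cultures reached saturation at 30 °C; 1 = growth at the plate median or of vehicle wells; lower values mean less growth of the strain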
- Experimental Context: S. cerevisiae deletion strains, growth OD, locus YAL030W, strain snc1
Hit rate of the full screen: of about 5,500 compounds, about 2,000 (36%) were called active. About 18% were inconclusive and are not listed. No stated cut-off is given here; in the data, active means normalized growth mostly below about 0.91 (no sharp cut-off); inconclusive means no clear call, values can overlap the other calls; inactive means mostly above about 0.92. This is one part of the list.
Hello, when you answer, please use one of the following outcomes: label 1 (active), label 0 (inactive)

Worked cases, answers included:
Compound: CC(C)=CCCC(C)[C@@H]1CC[C@]2(C)C3=C(CC[C@@]12C)C1(C)CC[C@H](O)C(C)(C)C1CC3 (some centres not stated)
Label Value: label 1

Compound: O=C(O)c1cc(O)c2c(c1)[C@@H]([C@H]1c3cc(C(=O)O)cc(O)c3C(=O)c3c(O[C@H]4O[C@H](CO)[C@@H](O)[C@H](O)[C@H]4O)cccc31)c1cccc(O[C@H]3O[C@H](CO)[C@@H](O)[C@H](O)[C@H]3O)c1C2=O
Label Value: label 0

Compound: CCC(C)C(=O)OC1[C@@H]2CC3=C4CC(=O)O[C@@H](c5ccoc5)[C@]4(C)CCC3[C@@](C)(C2=O)[C@@H](CC(=O)OC)C1(C)C (some centres not stated)
Label Value: label 0

Status in this test for C=C1c2c(Cl)ccc(O)c2C(O)=C2C(=O)[C@]3(O)C(O)=C(C(N)=O)C(=O)[C@@H](N(C)C)[C@@H]3[C@@H](O)[C@H]12 ? label 0

Status in this test for CC(C)c1ccc2c(c1)CCC1C(C)(C(N)=O)CCCC21C (configuration not stated) ? label 0

Status in this test for CN(C)C(=O)Oc1cccc([N+](C)(C)C)c1 ? label 0

Status in this test for CC(C)=CCc1c2c(c3occ(-c4ccc(O)c(O)c4)c(=O)c3c1O)C=CC(C)(C)O2 ? label 0

Status in this test for O=P1(NCCCl)OCCCN1CCCl (configuration not stated) ? label 0

Status in this test for Cc1nc(N)cc(C[n+]2csc(CCO)c2C)n1 ? label 0

Status in this test for NS(=O)(=O)c1cc2c(cc1Cl)NC(CSCc1ccccc1)=NS2(=O)=O ? label 0

###

- Assay Overview: chemical genetic growth profiling, strain panel (AID 1159580);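 also: tested at 20 µM; growth read once vehicle control cultures reached saturation at 30 °C; 1 = growth at the plate median or of vehicle wells; lower values mean less growth of the strain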
- Experimental Context: S. cerevisiae deletion strains, growth OD, locus YKL085W, strain MDH1, hits give low values
About 2,000 (36%) of roughly 5,500 compounds were called active. About 18% were inconclusive and are not listed. Some of the results follow.
Observation Type: normalized growth
Give a plain numeric answer without units written out.

Here's what some known entries look like.
Compound: O=C(NCO)c1cccnc1
Test Value: 1
--
Compound: Cc1c(C)c2c(c(C)c1O)CCC(C)(CCCC(C)CCCC(C)CCCC(C)C)O2 (stereo unspecified)
Test Value: 0.99
--
Compound: Nc1ccc(S(=O)(=O)NC(=O)c2ccccc2)cc1
Test Value: 1
--
Compound: NC(Cn1ccc(=O)c(O)c1)C(=O)O (stereo unspecified)
Test Value: 0.993
--
Compound: COc1ccc(C2Sc3ccccc3N(CCN(C)C)C(=O)C2OC(C)=O)cc1 (stereo unspecified)
Test Value: 1.03

Next, consider the following compound.
Field request: normalized growth | item: CC(C)CC(NC(=O)OCC1c2ccccc2-c2ccccc21)C(=O)O (stereo unspecified) 1

###

- Assay Overview: chemical genetic growth profiling, strain panel (AID 1159580);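 also: tested at 20 µM; growth read once vehicle control cultures reached saturation at 30 °C; 1 = growth at the plate median or of vehicle wells; lower values mean less growth of the strain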
- Experimental Context: S. cerevisiae deletion strains, growth OD, locus YLR262C, strain YPT6
About 2,000 (36%) of roughly 5,500 compounds were called active. About 18% were inconclusive and are not listed. Rule as the data show it: active = normalized growth mostly below about 0.91 (no sharp cut-off); inconclusive = no clear call, values can overlap the other calls; inactive = mostly above about 0.92. Some of the results follow.
Hello, when you answer, please use one of the following outcomes: 1.0 = active, 0.0 = inactive

Worked cases, answers included:
Molecule: CC(=O)O[C@H]1CCC2(C)C3=C(CCC2C1(C)C)[C@@]1(C)CC[C@@H](C(C)CCC=C(C)C)[C@]1(C)CC3 (stereo partly specified)
Label Value: 0.0
//
Molecule: CC(C)CCCC(C)C1CC[C@@]2(C)C3=C(CC[C@]12C)[C@@]1(C)CC[C@H](O)C(C)(C)C1CC3 (stereo partly specified)
Label Value: 0.0
//
Molecule: Cn1c(CSc2ccccc2)n[nH]c1=S
Label Value: 0.0
//
Molecule: Cc1ccc(-c2nn[nH]n2)cc1Cl
Label Value: 0.0
//
Molecule: CCC(C)[C@H]1O[C@]2(C=C[C@@H]1C)C[C@@H]1C[C@@H](C/C=C(\C)[C@@H](OC3C[C@H](OC)C(O[C@H]4C[C@H](OC)[C@@H](O)[C@H](C)O4)[C@H](C)O3)[C@@H](C)/C=C/C=C3\CO[C@@H]4[C@H](O)C(C)=C[C@@H](C(=O)O1)[C@]34O)O2 (stereo partly specified)
Label Value: 1.0

Status in this test for CSc1sc(C#N)c2c1C(O)CCC2 (stereo unspecified) ? 0.0

Status in this test for CS(=O)(=O)c1ccc([C@@H](O)[C@@H](CO)NC(=O)C(Cl)Cl)cc1 ? 0.0

Status in this test for O=[N+]([O-])c1ccc(N2CCOCC2)cc1 ? 0.0

Status in this test for CCN1CCN(C(=O)NC(C(=O)N[C@@H]2C(=O)N3[C@@H]2SC(C)(C)[C@@H]3C(=O)O)c2ccccc2)C(=O)C1=O (stereo partly specified) ? 0.0

Status in this test for CCOC(=O)CSc1nc2cc(C(F)(F)F)cnc2n1C ? 0.0

Status in this test for Nc1ccc(S(=O)(=O)NC(=O)c2ccccc2)cc1 ? 0.0

Status in this test for CCCCCCc1cc2c(C)cc(=O)oc2cc1O ? 1.0
